These data points were gathered from patent US20240400718A1.

- Target desc: S#027: VH-L1-VL CAR-T
- Method summary: flow cytometry on CAR-T cells; PE-labeled secondary antibody; PE-positive cells / total cells
Measured endpoint: Reactivity (%)
Field format: number, assumed %, no unit text.

Item under review: 2D12-B12 (antibody, V domains shown) VH: EVKLVESGGGLVQPGRSLKLSCAASGFNFNDYWMGWVRQAPGKGLEWIGEIKKDSSIINYIPSLKDKFTISRDNAQNTLYLQMSKLGSEDTAIYYCARGVEYYGYHYWGQGTLVTVSS VL: DIVMTQSPSSLAVSAGETVTINCKSSQSLLYSGNQKNYLAWYQQKPGQSPKLLIYWASTRHSGVPARFIGSGSGSDFTLTISSVQAEDLAIYCCQQYYDIPYTFGAGTKLELK . Reported Reactivity (%)?
28.4
